Reported viability values are given for each entry in this list.
Test system: SB.msgc-1
Assay: viability at highest tested concentration (MAXR) relative to DMSO; higher = less cytotoxic
Conditions: SB.msgc-1 (sporadic gastric cancer)
Please give a number only; it is taken to be in %.

These solved cases illustrate the format of a correct answer.
CN1CCN(c2c(F)cc3c(=O)c(C(=O)O)cn(CCF)c3c2F)CC1 [Fleroxacin] (top concentration 46.0829 µM); 80.3
COc1ccc(C(=O)c2c(C)n(CCN3CCOCC3)c3cc(I)ccc23)cc1 [AM-630] (top concentration 46.0829 µM); 39.7
C[C@H]1[C@@H](C(=O)C[C@H]2O[C@@H]3O[C@]4(C)CC[C@H]5[C@H](C)CC[C@@H]([C@H]2C)[C@@]35OO4)O[C@@H]2O[C@]3(C)CC[C@H]4[C@H](C)CC[C@@H]1[C@@]24OO3 [BTM-2C-dimer ketone] (top concentration 46.0829 µM); 69

Query block: Quote viability reported for CN[C@@H](C)C(=O)N[C@H]1CCCC[C@H]2CC[C@@H](C(=O)N[C@@H](c3ccccc3)c3cn(CCCCc4ccc(CCCCn5cc([C@@H](NC(=O)[C@@H]6CC[C@@H]7CCCC[C@H](NC(=O)[C@H](C)NC)C(=O)N76)c6ccccc6)nn5)cc4)nn3)N2C1=O [SM-164] (top concentration 46.0829 µM) please.
Result block: 49.1

Query block: Quote viability reported for CC(C)(C)OC(=O)N[C@H]1CCCCC/C=C\[C@@H]2C[C@@]2(C(=O)N[S+](=O)([O-])C2CC2)NC(=O)[C@@H]2C[C@@H](OC(=O)N3Cc4cccc(F)c4C3)CN2C1=O [Danoprevir] (top concentration 46.0829 µM) please.
Result block: 101

====

System: SB.msgc-1
Test: viability at highest tested concentration (MAXR) relative to DMSO; higher = less cytotoxic
Details: SB.msgc-1 (sporadic gastric cancer)
// classify: if (viability < 8%) YES else NO

Consider the following illustrative entries.
Cc1c[nH]c(/C=C2\C(=O)Nc3ccccc32)c1CCC(=O)O [SU-5402] (top concentration 46.0829 µM); NO
NC[C@@H]1O[C@H](O[C@H]2[C@@H](O)[C@H](O[C@@H]3[C@@H](O)[C@H](N)C[C@H](N)[C@H]3O[C@H]3O[C@H](CN)[C@@H](O)[C@H](O)[C@H]3N)O[C@@H]2CO)[C@H](N)[C@@H](O)[C@@H]1O.O=S(=O)(O)O.O=S(=O)(O)O.O=S(=O)(O)O [Neomycin sulfate] (top concentration 46.0829 µM); NO
CC(C)[N+]1(C)C2CCC1CC(OC(=O)C(CO)c1ccccc1)C2.O.[Br-] (stereo not given) [Ipratropium bromide] (top concentration 46.0829 µM); NO

Query block: hey, is viability for Cc1cnc(Nc2ccc(N3CCN(C)CC3)cc2)nc1Nc1cccc([S+](=O)([O-])NC(C)(C)C)c1 (top concentration 46.0829 µM) lower than 8% or not?
Result block: NO

Query block: hey, is viability for CNC(=O)c1ccc(N2C(=S)N(c3ccc(C#N)c(C(F)(F)F)c3)C(=O)C23CCC3)cc1F [RD-162] (top concentration 46.0829 µM) lower than 8% or not?
Result block: YES

====

Reported viability values are given for each entry in this list.
Test system: SB.mhdgc-1
Test: viability at highest tested concentration (MAXR) relative to DMSO; higher = less cytotoxic
Conditions: SB.mhdgc-1 (hereditary c.1380delA CDH1 gastric cancer)
Please give a number only; it is taken to be in %.

Query block: Quote viability reported for CC(C)NC[C@@H](C(=O)N1CCN(c2ncnc3c2[C@H](C)C[C@H]3O)CC1)c1ccc(Cl)cc1 [GDC-0068] (top concentration 46.0829 µM) please.
Result block: 9.98
